Tested on: Salmonella typhimurium
Assay: Mutagenic activity in Salmonella typhimurium TA1535 at 0.312 to 5 mg/plate measured after incubation of upside down for 48 hrs in presence of liver S9 mixture
Assay type: toxicity, organism-based
Conditions: salmonella enterica subsp. enterica serovar typhimurium, s9, 48 h
measured.endpoint: Activity

>  <molecule>
C[C@H]1O[C@@H](n2cc(F)c(NC(=O)Oc3ccc([N+](=O)[O-])cc3)nc2=O)[C@H](O)[C@@H]1O

>  <measured.endpoint>
Activity

>  <result>
Non-toxic

$$$$
>  <molecule>
CC(C)CCOC(=O)Nc1nc(=O)n([C@@H]2O[C@H](C)[C@H]3OC(=O)O[C@H]32)cc1F

>  <measured.endpoint>
Activity

>  <result>
Non-toxic

$$$$
>  <molecule>
C[C@H]1O[C@@H](n2cc(F)c(NC(=O)Oc3ccc(Cl)cc3)nc2=O)[C@H](O)[C@@H]1O

>  <measured.endpoint>
Activity

>  <result>
Non-toxic

$$$$
>  <molecule>
CCCCCOC(=O)Nc1nc(=O)n([C@@H]2O[C@H](C)[C@H]3OC(=O)O[C@H]32)cc1F

>  <measured.endpoint>
Activity

>  <result>
Non-toxic

$$$$
>  <molecule>
CCCCCOC(=O)Nc1nc(=O)n([C@@H]2O[C@H](C)[C@@H](O)[C@H]2O)cc1F

>  <measured.endpoint>
Activity

>  <result>
Non-toxic

$$$$
>  <molecule>
CC(C)CCOC(=O)Nc1nc(=O)n([C@@H]2O[C@H](C)[C@@H](O)[C@H]2O)cc1F

>  <measured.endpoint>
Activity

>  <result>
Non-toxic

$$$$
>  <molecule>
CCC(C)COC(=O)Nc1nc(=O)n([C@@H]2O[C@H](C)[C@H]3OC(=O)O[C@H]32)cc1F (some centres undefined)

>  <measured.endpoint>
Activity

>  <result>
Non-toxic

$$$$
>  <molecule>
CCC(C)COC(=O)Nc1nc(=O)n([C@@H]2O[C@H](C)[C@@H](O)[C@H]2O)cc1F (some centres undefined)

>  <measured.endpoint>
Activity

>  <result>
Non-toxic

$$$$
>  <molecule>
C[C@H]1O[C@@H](n2cc(F)c(NC(=O)Oc3ccc([N+](=O)[O-])cc3)nc2=O)[C@@H]2OC(=O)O[C@@H]21

>  <measured.endpoint>
Activity

>  <result>
Non-toxic

$$$$
